target: Serine/threonine-protein kinase D2 (Homo sapiens) (UniProt Q9BZL6); settings: at 10 µM
Sequence (Q9BZL6 whole entry): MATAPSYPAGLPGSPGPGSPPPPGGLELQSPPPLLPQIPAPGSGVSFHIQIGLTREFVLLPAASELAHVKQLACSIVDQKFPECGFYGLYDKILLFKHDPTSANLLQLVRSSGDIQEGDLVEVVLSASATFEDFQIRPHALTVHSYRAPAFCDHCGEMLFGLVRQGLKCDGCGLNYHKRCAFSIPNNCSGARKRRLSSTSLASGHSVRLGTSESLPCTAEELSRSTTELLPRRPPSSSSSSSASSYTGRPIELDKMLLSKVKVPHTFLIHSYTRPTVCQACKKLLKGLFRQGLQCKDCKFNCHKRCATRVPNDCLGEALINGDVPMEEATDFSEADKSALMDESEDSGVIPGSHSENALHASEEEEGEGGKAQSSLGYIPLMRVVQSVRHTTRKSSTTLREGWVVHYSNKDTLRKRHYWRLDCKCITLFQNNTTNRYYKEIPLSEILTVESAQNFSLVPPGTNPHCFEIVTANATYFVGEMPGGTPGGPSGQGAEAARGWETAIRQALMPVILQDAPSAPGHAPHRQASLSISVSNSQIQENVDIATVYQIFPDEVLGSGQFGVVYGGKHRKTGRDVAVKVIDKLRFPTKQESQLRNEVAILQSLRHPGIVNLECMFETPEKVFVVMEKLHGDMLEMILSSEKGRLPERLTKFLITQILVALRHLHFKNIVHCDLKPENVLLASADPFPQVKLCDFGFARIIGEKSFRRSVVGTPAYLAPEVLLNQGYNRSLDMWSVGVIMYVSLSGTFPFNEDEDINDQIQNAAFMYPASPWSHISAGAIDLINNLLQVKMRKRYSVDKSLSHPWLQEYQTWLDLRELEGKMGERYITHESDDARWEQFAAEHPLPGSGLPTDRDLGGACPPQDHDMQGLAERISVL
Attribute: residual activity
Use % as the unit, but write only the number.

In the examples that follow, each entry is paired with its recorded residual activity.
* Cn1nc2c3c(cccc31)C(=O)c1ccccc1-2 | 92
* COc1ccc(CNc2nc(N(CCO)CCO)nc3c2ncn3C(C)C)cc1 | 93
* Cc1nc(-c2ccccc2)c(-c2ccncc2)o1 | 94
* CN(C)CCCn1cc(C2=C(c3c[nH]c4ccccc34)C(=O)NC2=O)c2ccccc21 | 82

Q: Could you share which residual activity value was measured for Nc1ccc2ncnc(NCCc3ccc(Oc4ccccc4)cc3)c2c1 ?
A: 102

Q: Could you share which residual activity value was measured for Cc1ccc(S(=O)(=O)/C=C/C#N)cc1 ?
A: 102

Q: Could you share which residual activity value was measured for CC(=O)c1ccc(N2CCOCC2)cc1O ?
A: 109

Q: Could you share which residual activity value was measured for CC(C)n1cnc2c(NCc3ccccc3)nc(NCCCO)nc21 ?
A: 96

Q: Could you share which residual activity value was measured for CCN(CC)C(=O)c1ccc(Nc2nc(OCC3CCCCC3)c3nc[nH]c3n2)cc1 ?
A: 51

Q: Could you share which residual activity value was measured for NC(=O)c1ccc2[nH]c(-c3ccc(Oc4ccc(Cl)cc4)cc3)nc2c1 ?
A: 84

Q: Could you share which residual activity value was measured for CC(=O)O/N=C1\C(=C2\C(=O)Nc3cc(Br)ccc32)Nc2ccccc21 ?
A: 102

Q: Could you share which residual activity value was measured for CO[C@H]1[C@@H](OC)C[C@H](C)[C@@H](OC)C2=CC(=O)C=C(NC(=O)/C(C)=C/C=C/[C@H](OC)[C@@H](OC(N)=O)/C(C)=C/[C@@H]1C)C2=O ?
A: 110

Q: Could you share which residual activity value was measured for O=C(O)c1ccc2c3c1cccc3c(=O)n1c3ccccc3nc21 ?
A: 84

Q: Could you share which residual activity value was measured for Cc1cc2ncc(-c3ccccc3)nc2cc1C ?
A: 110

Q: Could you share which residual activity value was measured for COc1cccc(-c2cc(=O)c3ccccc3o2)c1N ?
A: 97

---

target: Serine/threonine-protein kinase TAO3 (Homo sapiens) (UniProt Q9H2K8); settings: at 10 µM
Sequence (Q9H2K8 whole entry): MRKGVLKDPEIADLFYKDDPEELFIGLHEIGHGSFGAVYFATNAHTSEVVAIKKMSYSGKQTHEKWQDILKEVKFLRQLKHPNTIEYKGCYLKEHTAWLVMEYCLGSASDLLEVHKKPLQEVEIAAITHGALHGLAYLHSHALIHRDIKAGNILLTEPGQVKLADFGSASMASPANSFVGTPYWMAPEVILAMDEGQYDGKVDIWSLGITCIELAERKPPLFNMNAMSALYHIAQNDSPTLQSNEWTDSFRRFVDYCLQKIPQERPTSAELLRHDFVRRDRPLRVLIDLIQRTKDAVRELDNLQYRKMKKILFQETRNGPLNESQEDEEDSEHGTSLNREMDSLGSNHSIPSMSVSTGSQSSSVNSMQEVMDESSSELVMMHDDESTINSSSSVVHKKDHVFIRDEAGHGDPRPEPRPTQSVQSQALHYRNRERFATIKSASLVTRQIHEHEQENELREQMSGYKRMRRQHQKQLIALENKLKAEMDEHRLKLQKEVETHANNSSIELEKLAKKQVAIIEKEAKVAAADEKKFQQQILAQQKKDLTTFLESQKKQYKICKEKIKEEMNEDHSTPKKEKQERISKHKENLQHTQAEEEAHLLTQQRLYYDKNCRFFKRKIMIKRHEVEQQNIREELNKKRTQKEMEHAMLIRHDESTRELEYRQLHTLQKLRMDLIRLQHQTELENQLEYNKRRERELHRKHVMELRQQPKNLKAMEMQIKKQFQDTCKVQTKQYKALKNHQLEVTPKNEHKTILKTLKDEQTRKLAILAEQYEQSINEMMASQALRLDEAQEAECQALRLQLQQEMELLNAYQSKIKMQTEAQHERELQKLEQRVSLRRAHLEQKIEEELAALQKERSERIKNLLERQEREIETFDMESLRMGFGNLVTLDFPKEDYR
Attribute: residual activity
Use % as the unit, but write only the number.

* Oc1ccc(Nc2nc(-c3ccc(Cl)cc3)cs2)cc1 | 95
* Cc1ccc(S(=O)(=O)/C=C/C#N)cc1 | 98

Q: Could you share which residual activity value was measured for COc1ccc(OC)c2c(=S)c3ccccc3[nH]c12 ?
A: 90

Q: Could you share which residual activity value was measured for Nc1ccc2ncnc(NCCc3ccc(Oc4ccccc4)cc3)c2c1 ?
A: 92

Q: Could you share which residual activity value was measured for CCN(CC)CCCCN1c2ccccc2Oc2ccc(Cl)cc21 ?
A: 96

Q: Could you share which residual activity value was measured for O=C(Nc1cccc(Nc2nccc(Nc3cccc(C(F)(F)F)c3)n2)c1)C1CC1 ?
A: 67

Q: Could you share which residual activity value was measured for CCN(CC)C(=O)c1ccc(Nc2nc(OCC3CCCCC3)c3nc[nH]c3n2)cc1 ?
A: 16

Q: Could you share which residual activity value was measured for COc1ccc(CNc2nc(N(CCO)CCO)nc3c2ncn3C(C)C)cc1 ?
A: 71

Q: Could you share which residual activity value was measured for CC(C)n1cnc2/c(=N/c3cccc(Cl)c3)nc(NCCO)[nH]c21 ?
A: 54

Q: Could you share which residual activity value was measured for Cc1cc(Nc2nc(-c3ccccc3)nc3ccccc23)n[nH]1 ?
A: 67

Q: Could you share which residual activity value was measured for Cn1cnc2cc3c(Nc4cccc(Br)c4)ncnc3cc21 ?
A: 93
